- target: hSTING(R232) (Homo sapiens, UniProt Q86WV6, H232R)
- Sequence (Q86WV6 whole entry H232R): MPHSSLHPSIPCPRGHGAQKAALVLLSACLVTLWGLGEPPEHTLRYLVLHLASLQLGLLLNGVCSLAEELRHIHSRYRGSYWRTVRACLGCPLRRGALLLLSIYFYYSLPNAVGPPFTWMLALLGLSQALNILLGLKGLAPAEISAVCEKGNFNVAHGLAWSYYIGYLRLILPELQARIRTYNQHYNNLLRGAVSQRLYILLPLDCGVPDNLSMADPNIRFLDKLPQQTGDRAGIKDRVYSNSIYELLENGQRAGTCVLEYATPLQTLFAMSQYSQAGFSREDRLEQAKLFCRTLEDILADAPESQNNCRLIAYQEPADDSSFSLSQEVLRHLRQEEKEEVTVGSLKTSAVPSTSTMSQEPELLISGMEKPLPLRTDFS
- experimental_details: Luciferase reporter assay in HEK293T-hSTING-Luciferase cells, R232 (wild type) human STING
- Format: cell-based
- condition_parameters: 20 hr stimulation, read-out: R232 human activity (EC50 range)
pEC50: −log10 of the molar value. Structures can show the parent of a compound that is named as a salt.
metric_name: pEC50

Some molecules with recorded pEC50:
| molecule | pEC50 |
| --- | --- |
| C[C@H]1c2ccc(C(=O)NCc3c(F)cc(F)cc3F)cc2N(Cc2c(F)cc(OCCOP(=O)(O)O)cc2F)C(=O)N1C [Example 97] | > 6.00 |
| C[C@H]1c2ccc(C(=O)NCc3ccc(F)cc3OP(=O)(O)O)cc2N(Cc2c(F)cccc2Cl)C(=O)N1C [Example 93] | > 6.00 |
| CC1c2ccc(C(=O)NCc3c(F)cc(F)cc3F)cc2N(Cc2ccccc2F)C(=O)N1C (centres unmarked) [Example 194] | > 6.00 |
| C[C@H]1c2ccc(C(=O)NCc3c(F)cc(F)cc3F)cc2N(Cc2c(O)ccc(F)c2F)C(=O)N1C [Example 242] | > 6.00 |

The recorded pEC50 for entry COc1ccc2cc(CNC(=O)c3ccc4c(c3)N(Cc3c(F)cccc3Cl)C(=O)N(C)C4)oc2c1 [Example 22] equals < 5.00

The recorded pEC50 for entry CC1c2ccc(C(=O)NCc3c(F)cc(F)cc3F)cc2N(Cc2c(F)cccc2OCCO)C(=O)N1C (centres unmarked) [Example 236] equals > 6.00

The recorded pEC50 for entry COc1ncc(Cl)c(CN2C(=O)N(C)[C@@H](C)c3ccc(C(=O)NCc4c(F)cc(F)cc4F)cc32)c1F [Example 184] equals > 6.00

The recorded pEC50 for entry C[C@H]1c2ccc(C(=O)NCc3cccc(O)c3F)cc2N(Cc2c(F)cccc2Cl)C(=O)N1C [Example 267] equals > 6.00

The recorded pEC50 for entry CC1c2ccc(C(=O)NCc3c(F)cc(F)cc3F)cc2N(Cc2c(O)cccc2F)C(=O)N1C (centres unmarked) [Example 160] equals > 6.00

The recorded pEC50 for entry COc1cc(F)c(CN2C(=O)N(C)[C@@H](C)c3ccc(C(=O)NCc4c(F)cc(F)cc4F)cc32)c(F)c1 [Example 79] equals > 6.00

The recorded pEC50 for entry C[C@H]1c2ccc(C(=O)NCc3c(F)cc(F)cc3F)cc2N(Cc2c(F)cccc2NC(=O)CN)C(=O)N1C [Example 272, dihydrochloride] equals 5.00 to 6.00

The recorded pEC50 for entry C[C@H]1c2ccc(C(=O)NCc3c(F)cc(F)cc3F)cc2N(Cc2c(F)cc(OCCN3CCOCC3)cc2F)C(=O)N1C [Example 291] equals > 6.00

The recorded pEC50 for entry C[C@H]1c2ccc(C(=O)NCc3c(F)cc(F)cc3F)cc2N(Cc2c(F)cc(OCCCOP(=O)(O)O)cc2F)C(=O)N1C [Example 82] equals > 6.00

The recorded pEC50 for entry Cc1ccc(F)c(CN2C(=O)N(C)C(C)c3ccc(C(=O)NCc4c(F)cc(F)cc4F)cc32)c1Br (centres unmarked) [Example 220] equals > 6.00

The recorded pEC50 for entry CN1Cc2ccc(C(=O)NCc3c(F)cc(F)cc3F)cc2N(Cc2ccccc2Cl)C1=O [Example 19] equals 5.00 to 6.00

The recorded pEC50 for entry C[C@H]1c2ccc(C(=O)NCc3c(F)cc(F)cc3F)cc2N(Cc2c(OCCOP(=O)(O)O)ccc(F)c2F)C(=O)N1C [Example 91] equals > 6.00

The recorded pEC50 for entry Cc1cc(CN2C(=O)N(C)C(C)c3ccc(C(=O)NCc4c(F)cc(F)cc4F)cc32)ccn1 (centres unmarked) [Example 208] equals > 6.00

The recorded pEC50 for entry C[C@H]1c2ccc(C(=O)NCc3c(F)cc(F)cc3F)cc2N(Cc2cc(OCCO)cc(F)c2F)C(=O)N1C [Example 282] equals > 6.00

The recorded pEC50 for entry CC1c2ccc(C(=O)NCc3c(F)cc(F)cc3F)cc2N(Cc2ccccc2)C(=O)N1C (centres unmarked) [Example 191] equals > 6.00

The recorded pEC50 for entry C[C@H]1c2ccc(C(=O)NCc3c(F)cc(F)cc3F)cc2N(Cc2c(F)cc(OCC(O)CO)cc2F)C(=O)N1C (some centres unmarked) [Example 145] equals > 6.00

The recorded pEC50 for entry C[C@H]1c2ccc(C(=O)NCc3c(F)cc(F)cc3F)cc2N(Cc2c(F)cc(F)cc2OCCCOP(=O)(O)O)C(=O)N1C [Example 94] equals > 6.00

The recorded pEC50 for entry COc1cc(F)c(CNC(=O)c2ccc3c(c2)N(Cc2c(F)cccc2Cl)C(=O)N(C)[C@H]3C)c(F)c1 [Example 246] equals > 6.00

The recorded pEC50 for entry Cc1ccc(Cl)c(CN2C(=O)N(C)[C@@H](C)c3ccc(C(=O)NCc4c(F)cc(F)cc4F)cc32)c1F [Example 169] equals > 6.00

The recorded pEC50 for entry CN1Cc2ccc(C(=O)NCc3cccc4occc34)cc2N(Cc2c(F)cccc2Cl)C1=O [Example 50] equals < 5.00
